readout: Ki

State, for UniProt P31389, measured Ki of the compound listed here: Cc1cc(NC(=O)Nc2ccc3c(ccn3C)c2)sn1
Sequence (P31389 whole entry): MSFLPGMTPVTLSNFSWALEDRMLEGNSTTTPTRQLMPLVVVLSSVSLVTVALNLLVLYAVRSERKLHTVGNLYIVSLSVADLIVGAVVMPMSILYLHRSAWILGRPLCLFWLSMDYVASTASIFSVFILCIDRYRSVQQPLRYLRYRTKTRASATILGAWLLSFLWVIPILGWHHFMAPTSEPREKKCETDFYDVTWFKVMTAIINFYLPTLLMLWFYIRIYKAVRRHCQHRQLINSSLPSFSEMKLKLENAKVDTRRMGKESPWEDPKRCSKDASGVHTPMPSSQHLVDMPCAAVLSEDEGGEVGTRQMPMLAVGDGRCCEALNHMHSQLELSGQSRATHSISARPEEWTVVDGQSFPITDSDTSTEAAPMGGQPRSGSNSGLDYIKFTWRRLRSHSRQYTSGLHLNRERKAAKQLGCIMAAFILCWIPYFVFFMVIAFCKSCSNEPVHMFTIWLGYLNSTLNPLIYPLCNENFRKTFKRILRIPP
> 10 µM

State, for UniProt P31389, measured Ki of the compound listed here: CC(N)Cc1c[nH]c2ccc(OCc3cccs3)cc12 (configuration not stated)
> 10 µM

====

Target: 5-hydroxytryptamine receptor 4 (Sus scrofa)
Sequence (Q29006 whole entry): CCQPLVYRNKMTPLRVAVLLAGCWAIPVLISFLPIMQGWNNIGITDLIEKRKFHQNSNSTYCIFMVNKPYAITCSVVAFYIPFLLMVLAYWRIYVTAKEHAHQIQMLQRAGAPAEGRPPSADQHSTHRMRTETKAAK
pKi: −log10 of the molar value.
readout: pKi

Name the recorded pKi of the compound listed here: CC(N)Cc1c[nH]c2ccc(OCc3cccs3)cc12 (stereo unspecified)
< 5.00

====

Biological target: Alpha-2C adrenergic receptor (Rattus norvegicus, UniProt P22086)
Sequence (P22086 whole entry): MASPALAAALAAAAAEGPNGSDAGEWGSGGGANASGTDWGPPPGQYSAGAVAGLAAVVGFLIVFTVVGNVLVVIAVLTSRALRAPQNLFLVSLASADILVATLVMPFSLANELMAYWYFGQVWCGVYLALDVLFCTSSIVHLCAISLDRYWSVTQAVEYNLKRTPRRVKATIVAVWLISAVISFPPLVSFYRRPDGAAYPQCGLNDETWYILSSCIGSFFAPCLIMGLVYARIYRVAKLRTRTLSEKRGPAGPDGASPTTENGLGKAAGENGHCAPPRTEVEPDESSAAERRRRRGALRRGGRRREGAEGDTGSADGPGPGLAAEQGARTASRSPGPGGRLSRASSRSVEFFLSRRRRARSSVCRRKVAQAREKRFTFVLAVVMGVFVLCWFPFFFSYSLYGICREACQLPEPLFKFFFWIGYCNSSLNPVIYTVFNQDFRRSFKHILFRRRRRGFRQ
readout: Ki

Name the recorded Ki of the compound listed here: CC(N)Cc1c[nH]c2ccc(OCc3cccs3)cc12 (stereo unspecified) [NSC_5311036]
> 10 µM
